Attribution: patent US20230035798A1

- Target or system: T1, cynomolgus (Macaca fascicularis) LIGHT, membrane-bound (cynomolgus (Macaca fascicularis), UniProt E9NVF7 1-240)
- T1 construct: whole, on cells; also called cynomolgus membrane LIGHT; HEK293FF-cynomolgus LIGHT cells
- T1 sequence (E9NVF7 entry or part of it): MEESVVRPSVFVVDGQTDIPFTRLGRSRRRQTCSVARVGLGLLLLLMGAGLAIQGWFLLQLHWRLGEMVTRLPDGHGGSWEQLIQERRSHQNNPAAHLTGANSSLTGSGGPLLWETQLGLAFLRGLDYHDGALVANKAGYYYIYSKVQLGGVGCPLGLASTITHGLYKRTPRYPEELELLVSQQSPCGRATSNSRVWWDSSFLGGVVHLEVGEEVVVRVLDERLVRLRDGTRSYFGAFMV
- Protocol notes: flow cytometry, transiently transfected HEK293FF cells
Endpoint name: EC50 (nM)
Give just the numeric value; nM need not be written.

// query EC50 value for entry 3A07 (antibody, human IgG4, V domains shown, chimeric human IgG4 (S-to-P, L-to-E at 248), human CL; also called Parental 3A07) VH: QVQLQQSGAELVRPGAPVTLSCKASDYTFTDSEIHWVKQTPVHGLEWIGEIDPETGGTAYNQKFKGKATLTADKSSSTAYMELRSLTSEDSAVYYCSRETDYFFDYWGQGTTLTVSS VL: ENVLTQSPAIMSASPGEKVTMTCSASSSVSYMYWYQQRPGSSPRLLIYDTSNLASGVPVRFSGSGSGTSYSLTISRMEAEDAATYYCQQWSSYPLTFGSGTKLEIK
7.6

// query EC50 value for entry 3B04 (antibody, human IgG4, V domains shown, chimeric: mouse variable domains on human IgG4 HC (S-to-P and L-to-E at 248) and human CL; also called Parental 3B04; 3B04 chimeric) VH: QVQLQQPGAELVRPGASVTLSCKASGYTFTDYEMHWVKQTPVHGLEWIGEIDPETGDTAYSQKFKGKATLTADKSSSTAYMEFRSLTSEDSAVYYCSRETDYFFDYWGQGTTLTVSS VL: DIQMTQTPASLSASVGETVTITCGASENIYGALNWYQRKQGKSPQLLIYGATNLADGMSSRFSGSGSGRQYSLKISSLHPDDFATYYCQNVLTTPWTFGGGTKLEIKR
0.1

// query EC50 value for entry 3E09 (antibody, V domains shown, chimeric human IgG4 (S-to-P, L-to-E at 248), human CL; also called Parental 3E09) VH: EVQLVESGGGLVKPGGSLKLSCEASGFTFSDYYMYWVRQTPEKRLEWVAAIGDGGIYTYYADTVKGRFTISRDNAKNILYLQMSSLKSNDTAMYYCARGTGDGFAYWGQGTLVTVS VL: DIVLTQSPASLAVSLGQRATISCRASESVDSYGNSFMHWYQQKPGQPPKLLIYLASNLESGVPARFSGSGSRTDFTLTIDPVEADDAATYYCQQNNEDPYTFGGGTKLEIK
0.7

// query EC50 value for entry 2E08 (antibody, human IgG4, V domains shown, chimeric human IgG4 (S-to-P, L-to-E at 248), human CL; also called Parental 2E08) VH: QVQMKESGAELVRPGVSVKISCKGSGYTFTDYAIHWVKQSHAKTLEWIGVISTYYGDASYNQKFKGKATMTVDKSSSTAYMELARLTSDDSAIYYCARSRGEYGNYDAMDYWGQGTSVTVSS VL: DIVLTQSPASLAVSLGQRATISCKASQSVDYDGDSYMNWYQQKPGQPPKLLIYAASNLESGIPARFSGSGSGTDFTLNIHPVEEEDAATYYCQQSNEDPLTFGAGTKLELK
0.3
